This collection of values is drawn from ChEMBL document CHEMBL1139011.

Provide the recorded CC50 for the entries that follow.
Test system: Vero
Test: Cytotoxicity against Vero cell by MTT assay
Format: functional
Conditions: Chlorocebus sabaeus

Lab note: measured CC50 of CCOC(=O)c1cn(COCCO)c(=S)[nH]c1=O was > 364 µM

Lab note: measured CC50 of O=c1[nH]c(=O)n(COCCO)cc1CO was > 476 µM

Lab note: measured CC50 of O=c1[nH]c(=O)n(COCCO)cc1Cl was > 454 µM

Lab note: measured CC50 of COC(=O)c1cc(=O)[nH]c(=O)n1COCCO was > 409 µM

Lab note: measured CC50 of Cc1c(I)c(=O)[nH]c(=O)n1COCCO was > 306 µM

Lab note: measured CC50 of Nc1cn(COCCO)c(=O)[nH]c1=O was > 497 µM

Lab note: measured CC50 of CCc1cn(COCCO)c(=S)[nH]c1=O was > 478 µM

Lab note: measured CC50 of O=c1[nH]c(=O)n(COCCO)cc1Br was > 377 µM

* * *

Test system: Hepatitis B virus
Assay: Inhibition of HBV L180M/ M204V mutant transfected in D88 cell line
Format: functional, organism-based
experimental-readout: pEC50
pEC50 here is simply -log10 of the concentration when that concentration is written in mol/L.

Note to self: pEC50 of Nc1nc(NC2CC2)c2ncn([C@H]3C=C[C@@H](CO)C3)c2n1 with Hepatitis B virus was 5.47

Note to self: pEC50 of O=c1[nH]c(=O)n(COCCO)cc1C(F)(F)F with Hepatitis B virus was 4.41

Note to self: pEC50 of O=c1[nH]c(=O)n(COCCO)cc1Cl with Hepatitis B virus was 5.35

Note to self: pEC50 of O=c1[nH]c(=O)n(COCCO)cc1Br with Hepatitis B virus was 5.43

* * *

Test system: Hepatitis B virus
Assay: Inhibition of wild type HBV transfected in human hepatoblastoma 2.2.15 cells
Assay type: functional, organism-based
Details: HepG2 2.2.15
experimental-readout: pEC50
pEC50 here is simply -log10 of the concentration when that concentration is written in mol/L.

Lab note: measured pEC50 of O=c1[nH]c(=O)n(COCCO)cc1[N+](=O)[O-] was 4.36

Lab note: measured pEC50 of Cc1cc(=O)[nH]c(=O)n1COCCO was 4.60

Lab note: measured pEC50 of Nc1ccn([C@@H]2CS[C@H](CO)O2)c(=O)n1 [LAMIVUDINE] was 5.68

Lab note: measured pEC50 of COC(=O)c1cc(=O)[nH]c(=O)n1COCCO was 4.39

Lab note: measured pEC50 of O=c1[nH]c(=O)n(COCCO)cc1Cl was 5.35

Lab note: measured pEC50 of O=c1[nH]c(=O)n(COCCO)cc1Br was 4.73

Lab note: measured pEC50 of Cc1c(I)c(=O)[nH]c(=O)n1COCCO was 4.51

Lab note: measured pEC50 of CCOC(=O)c1cn(COCCO)c(=S)[nH]c1=O was 4.74

Lab note: measured pEC50 of O=c1[nH]c(=O)n(COCCO)cc1CO was 4.62

Lab note: measured pEC50 of Cc1c([N+](=O)[O-])c(=O)[nH]c(=O)n1COCCO was 4.69

Lab note: measured pEC50 of O=c1[nH]c(=O)n(COCCO)cc1C(F)(F)F was 4.71

Lab note: measured pEC50 of Nc1cn(COCCO)c(=O)[nH]c1=O was 4.30
